test system: Escherichia coli TOP10; assay: shrunken log2 fold change of peptide-encoding DNA abundance (4.5 h post-induction vs induction); higher = less antimicrobial activity (less host growth inhibition); settings: time post-induction: 4.5 h; library: site-saturation at positions 5, 18, 19, 20;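 also: peptides expressed intracellularly from a pBAD plasmid library in pooled LB shake-flask culture, induced with 0.3% L-arabinose, DNA abundance read by NGS, three biological replicates, DESeq2 with apeglm shrinkage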
measurement label: shrunken log2 fold change

Enquiry: What value of shrunken log2 fold change has been reported for the following sequence? "RRIRFRPPRLPRPRPRPGAEPRP"
Return: 0.286

Enquiry: What value of shrunken log2 fold change has been reported for the following sequence? "RRIRWRPPRLPRPRPRPSEAPRP"
Return: 0.0701

Enquiry: What value of shrunken log2 fold change has been reported for the following sequence? "RRIRGRPPRLPRPRPRPRHVPRP"
Return: 0.218

Enquiry: What value of shrunken log2 fold change has been reported for the following sequence? "RRIRPRPPRLPRPRPRPCWKPRP"
Return: -0.0855

Enquiry: What value of shrunken log2 fold change has been reported for the following sequence? "RRIRTRPPRLPRPRPRPNTPPRP"
Return: -0.17

Enquiry: What value of shrunken log2 fold change has been reported for the following sequence? "RRIRGRPPRLPRPRPRPARLPRP"
Return: 0.678

Enquiry: What value of shrunken log2 fold change has been reported for the following sequence? "RRIRERPPRLPRPRPRPENFPRP"
Return: -0.195

Enquiry: What value of shrunken log2 fold change has been reported for the following sequence? "RRIRLRPPRLPRPRPRPPTKPRP"
Return: 0.288

Enquiry: What value of shrunken log2 fold change has been reported for the following sequence? "RRIRTRPPRLPRPRPRPKSEPRP"
Return: -0.144

Enquiry: What value of shrunken log2 fold change has been reported for the following sequence? "RRIRPRPPRLPRPRPRPQIDPRP"
Return: -0.0108

Enquiry: What value of shrunken log2 fold change has been reported for the following sequence? "RRIRIRPPRLPRPRPRPQGPPRP"
Return: -0.0152

Enquiry: What value of shrunken log2 fold change has been reported for the following sequence? "RRIRARPPRLPRPRPRPEVHPRP"
Return: 3.57

Enquiry: What value of shrunken log2 fold change has been reported for the following sequence? "RRIRVRPPRLPRPRPRPNFDPRP"
Return: -0.0598

Enquiry: What value of shrunken log2 fold change has been reported for the following sequence? "RRIRRRPPRLPRPRPRPLGKPRP"
Return: -0.017

Enquiry: What value of shrunken log2 fold change has been reported for the following sequence? "RRIRKRPPRLPRPRPRPSSLPRP"
Return: -0.557

Enquiry: What value of shrunken log2 fold change has been reported for the following sequence? "RRIRERPPRLPRPRPRPTFGPRP"
Return: 0.0107

Enquiry: What value of shrunken log2 fold change has been reported for the following sequence? "RRIRNRPPRLPRPRPRPLQRPRP"
Return: 0.0374

Enquiry: What value of shrunken log2 fold change has been reported for the following sequence? "RRIRCRPPRLPRPRPRPEHLPRP"
Return: -0.0545

Enquiry: What value of shrunken log2 fold change has been reported for the following sequence? "RRIRHRPPRLPRPRPRPSLIPRP"
Return: 0.954

Enquiry: What value of shrunken log2 fold change has been reported for the following sequence? "RRIRPRPPRLPRPRPRPLNDPRP"
Return: -0.298

Enquiry: What value of shrunken log2 fold change has been reported for the following sequence? "RRIRARPPRLPRPRPRPESSPRP"
Return: 2.39

Enquiry: What value of shrunken log2 fold change has been reported for the following sequence? "RRIRMRPPRLPRPRPRPITVPRP"
Return: 0.0226

Enquiry: What value of shrunken log2 fold change has been reported for the following sequence? "RRIRVRPPRLPRPRPRPTKYPRP"
Return: -0.523

Enquiry: What value of shrunken log2 fold change has been reported for the following sequence? "RRIRGRPPRLPRPRPRPKLIPRP"
Return: 0.479

Enquiry: What value of shrunken log2 fold change has been reported for the following sequence? "RRIRFRPPRLPRPRPRPRTKPRP"
Return: 0.947

Enquiry: What value of shrunken log2 fold change has been reported for the following sequence? "RRIRDRPPRLPRPRPRPQGEPRP"
Return: -0.0304

Enquiry: What value of shrunken log2 fold change has been reported for the following sequence? "RRIRKRPPRLPRPRPRPFNGPRP"
Return: -0.407

Enquiry: What value of shrunken log2 fold change has been reported for the following sequence? "RRIRHRPPRLPRPRPRPWGIPRP"
Return: -0.0176

Enquiry: What value of shrunken log2 fold change has been reported for the following sequence? "RRIRPRPPRLPRPRPRPIIEPRP"
Return: -0.138

Enquiry: What value of shrunken log2 fold change has been reported for the following sequence? "RRIRKRPPRLPRPRPRPMSPPRP"
Return: -0.0332

Enquiry: What value of shrunken log2 fold change has been reported for the following sequence? "RRIRKRPPRLPRPRPRPLKGPRP"
Return: -0.022

Enquiry: What value of shrunken log2 fold change has been reported for the following sequence? "RRIRSRPPRLPRPRPRPNVEPRP"
Return: 0.814
